Target: M17 leucyl aminopeptidase (Plasmodium falciparum 3D7)
Test: Inhibition of P. falciparum M17 aminopeptidase – biochemical, QFRET, set 2, dose response (AID 602216)
Conditions: recombinant PfM17LAP, H-Leu-NHMec fluorogenic cleavage
Inconclusive results are not listed.
value type: IC50

| structure smiles string | IC50 |
| --- | --- |
| CCCCCCCCCC(=O)NO | 1920 nM |
| CCCCOc1ccc(CCC(=O)NO)cc1 | 2300 nM |
| CCCCOc1ccc(CC(=O)N(C)O)cc1 | 18000 nM |
| CCCCc1ccc(CC(=O)NO)cc1 | 380 nM |
| O=C(Cc1ccc2c(c1)CCCC2)NO | 180 nM |
| CCCCOc1ccc(CNc2c(N(C)O)c(=O)c2=O)cc1 | 33200 nM |
| COc1ccc(CCCC(=O)NO)cc1 | 2850 nM |
| COc1ccc(CC(=O)NO)cc1 | 540 nM |

get_value(item= `O=C(NO)c1cccc2ccccc12` , readout=IC50) returns 9080 nM

get_value(item= `O=C(Cc1ccc(Oc2ccccc2)cc1)NO` , readout=IC50) returns 410 nM

get_value(item= `O=C(Cc1ccc(OCc2ccccc2)cc1)NO` , readout=IC50) returns 630 nM

get_value(item= `CC(C)COc1ccc(CC(=O)NO)cc1` , readout=IC50) returns 950 nM

get_value(item= `CCCCOc1ccc(CC(=O)NO)cc1` , readout=IC50) returns 410 nM

get_value(item= `Cc1ccc(CC(=O)NO)cc1` , readout=IC50) returns 980 nM

get_value(item= `CN(O)C(=O)Cc1ccc(OCc2ccccc2)cc1` , readout=IC50) returns 20600 nM

get_value(item= `CCOc1ccc(CC(=O)NO)cc1` , readout=IC50) returns 740 nM

get_value(item= `CCCCOc1ccc(C(=O)NO)cc1` , readout=IC50) returns 3300 nM

get_value(item= `CC(C)(C(=O)NO)c1ccccc1` , readout=IC50) returns 60300 nM
